Stability of Plant-Derived Cannabinoid Compounds in AB White, 8° C. listing for selected compounds.
- Test Name: Stability of cannabinoid compounds and Vitamin E components in Beverage 1 (AB White) by LCMSMS
- Type: physicochemical
- Condition Notes: AB White stored at 8° C.; 17 days
Assay Readout: Stability of Plant-Derived Cannabinoid Compounds in AB White, 8° C. (µg/mL)

>>> quantitative_readout("CCCCCc1cc(O)c(C/C=C(\\C)CCC=C(C)C)c(O)c1")
4.78
>>> quantitative_readout("CCCc1cc(O)c2c(c1)OC(C)(C)[C@@H]1CCC(C)=C[C@@H]21 [THCV, delta-9-tetrahydrocannabivarin]")
3.61
>>> quantitative_readout("CCCCCc1cc(O)c2c(c1)OC1(C)CCC3C1C2C3(C)C (stereo not drawn)")
0.540
>>> quantitative_readout("CCCCCc1cc(O)c2c(c1)OC(C)(C)[C@@H]1CCC(C)=C[C@@H]21 [D9 THC, delta-9-tetrahydrocannabinol, reference compound]")
12.05
>>> quantitative_readout("C=C(C)[C@@H]1CCC(C)=C[C@H]1c1c(O)cc(CCCCC)cc1O [CBD, cannabidiol, reference compound]")
27.84
>>> quantitative_readout("CCCCCc1cc2c(c(O)c1C(=O)O)[C@@H]1C=C(C)CC[C@H]1C(C)(C)O2 [D9 THCA, delta-9-tetrahydrocannabinolic acid]")
0.951

----------
- Test Name: Stability of cannabinoid entourage and Vitamin E components of the powder concentrate by LCMSMS
- Assay type: physicochemical
- Condition Notes: powder stored at 21-25° C.; 360 days
- Method: At each time period, 0.05 g of powder was dissolved in 10 ml-15 of ethanol, diluted to fall within the analytical range, and injected into the LCMSMS for analysis.
Assay Readout: Stability of Plant-Derived Cannabinoid Compounds in Powder Concentrate (mg/g powder)

>>> quantitative_readout("C=C(C)[C@@H]1CCC(C)=C[C@H]1c1c(O)cc(CCCCC)c(C(=O)O)c1O [CBDA, cannabidiolic acid]")
0.413
>>> quantitative_readout("CCCc1cc(O)c2c(c1)OC(C)(C)[C@@H]1CCC(C)=C[C@@H]21 [THCV, delta-9-tetrahydrocannabivarin]")
0.668
>>> quantitative_readout("CCCCCc1cc(O)c2c(c1)OC(C)(C)c1ccc(C)cc1-2 [CBN, cannabinol]")
0.499

----------
Stability of Plant-Derived Cannabinoid Compounds in Powder Concentrate listing for selected compounds.
- Test Name: Stability of cannabinoid entourage and Vitamin E components of the powder concentrate by LCMSMS
- Format: physicochemical
- Condition Notes: powder stored at 21-25° C.; 360 days
- Protocol: At each time period, 0.05 g of powder was dissolved in 10 ml-15 of ethanol, diluted to fall within the analytical range, and injected into the LCMSMS for analysis.
Assay Readout: Stability of Plant-Derived Cannabinoid Compounds in Powder Concentrate (mg/g powder)

>>> quantitative_readout("C=C(C)[C@@H]1CCC(C)=C[C@H]1c1c(O)cc(CCCCC)cc1O [CBD, cannabidiol, reference compound]")
5.97
>>> quantitative_readout("C=C(C)[C@@H]1CCC(C)=C[C@H]1c1c(O)cc(CCC)cc1O")
0.050
>>> quantitative_readout("CCCCCc1cc(O)c2c(c1)OC1(C)CCC3C1C2C3(C)C (stereo not shown)")
0.050
>>> quantitative_readout("CCCCCc1cc2c(c(O)c1C(=O)O)[C@@H]1C=C(C)CC[C@H]1C(C)(C)O2 [D9 THCA, delta-9-tetrahydrocannabinolic acid]")
0.155
>>> quantitative_readout("CCCCCc1cc(O)c(C/C=C(\\C)CCC=C(C)C)c(O)c1")
1.09
>>> quantitative_readout("CCCCCc1cc(O)c2c(c1)OC(C)(C)[C@@H]1CCC(C)=C[C@@H]21 [D9 THC, delta-9-tetrahydrocannabinol, reference compound]")
2.58
>>> quantitative_readout("CCCCCc1cc(O)c2c(c1)OC(C)(CCC=C(C)C)C=C2 (stereo not shown)")
0.068
